read-out: Human Leukocyte Antigen - DR isotype (HLADR), HLA-DRA (gene 3122); test: BSK_BE3C_HLADR: BioMAP Diversity Plus: BE3C Assay for Human Leukocyte Antigen - DR isotype (HLADR) Biomarker Activity (AID 2283032); settings: primary human bronchial epithelial cells; actives raise or lower the signal
Calls of active or inactive are those of the source. Rule for the calls: active = hit-call score of the fitted dose curve at least 0.9, where 1 is the maximum; inactive = score below 0.9.
Classes used: TRUE for active, FALSE for inactive

| COMPOUND | ASSIGNED_LABEL |
| --- | --- |
| CN(CCOc1ccc(CC2SC(=O)NC2=O)cc1)c1ccccn1 (stereo not drawn) | TRUE |
| CCCCC(CC)COCCC#N (stereo not drawn) | FALSE |
| COc1cc(C=O)ccc1OC(=O)C(C)C | FALSE |
| CC(=O)Nc1ccccc1O | FALSE |
| CC(C)(COC(=O)c1ccccc1)COC(=O)c1ccccc1 | FALSE |
| O=C(O)c1cn(-c2ccc(F)cc2)c2cc(N3CCNCC3)c(F)cc2c1=O | FALSE |
| C=C(C)C(=O)O[C@H]1C[C@@H]2CC[C@@]1(C)C2(C)C | TRUE |
| CC[Si](OC(C)=O)(OC(C)=O)OC(C)=O | FALSE |
| CNC[C@H](O)c1cccc(O)c1 | FALSE |
| c1ccc2c(c1)c1cccc3ccc4cccc2c4c31 | FALSE |
| Cc1ccc(Nc2ccc(O)c3c2C(=O)c2ccccc2C3=O)cc1 | FALSE |
| O=C=NC1CCC(CC2CCC(N=C=O)CC2)CC1 (stereo not drawn) | FALSE |
| CC1CCC(C(C)CS)CC1S (stereo not drawn) | TRUE |

###

target: CCAAT/enhancer-binding protein beta (Homo sapiens); test: ATG_C_EBP_CIS: Attagene CIS-FACTORIAL HepG2 Assay for human CCAAT/Enhancer Binding Protein (C/EBP) beta (AID 2282927); conditions: HepG2 Attagene cis-factorial transcription factor reporter; actives raise or lower the signal
Active and inactive are the calls of the source. How the source made its calls: active means hit-call score of the fitted dose curve at least 0.9, where 1 is the maximum; inactive means score below 0.9.
Possible outcomes: active, inactive

| MOLECULE | SYSTEM_TESTED | ASSIGNED_LABEL |
| --- | --- | --- |
| CCc1c(C)cc(N)c(CC)c1N | CCAAT/enhancer-binding protein beta (Homo sapiens) | inactive |
| COc1ccc(NC(=O)CC(C)=O)cc1 | CCAAT/enhancer-binding protein beta (Homo sapiens) | inactive |
| CCOc1ccccc1OCC | CCAAT/enhancer-binding protein beta (Homo sapiens) | inactive |
| Cc1cccc(Nc2ccccc2C(=O)O)c1C | CCAAT/enhancer-binding protein beta (Homo sapiens) | inactive |
| CC(C)(CO)[N+](=O)[O-] | CCAAT/enhancer-binding protein beta (Homo sapiens) | inactive |
| COC(=O)C1=C(C)NC(C)=C(C(=O)OCCN(C)Cc2ccccc2)C1c1cccc([N+](=O)[O-])c1 (stereo unspecified) | CCAAT/enhancer-binding protein beta (Homo sapiens) | active |

###

assay: ATG_M_61_CIS: Attagene CIS-FACTORIAL HepG2 Assay for M61 Transcription Factor (Internal Marker) (AID 2282937); conditions: HepG2 Attagene CIS-FACTORIAL M61 internal marker reporter; actives raise or lower the signal
Active and inactive are the calls of the source. How the source made its calls: active means hit-call score of the fitted dose curve at least 0.9, where 1 is the maximum; inactive means score below 0.9.

| MOLECULE | outcome |
| --- | --- |
| CCCCC(CC)COC(=O)/C=C\C(=O)OCC(CC)CCCC (stereo not given) | inactive |
| CC(CCO)CCc1ccccc1 (stereo not given) | inactive |
| NNc1nc(-c2ccc(N)cc2)cs1 | inactive |
| O=C1c2ccccc2C(=O)N1SC1CCCCC1 | inactive |
| CCCCCCCCCCCCCOS(=O)(=O)O | inactive |
| O=C(Cl)c1cccc(C(=O)Cl)c1 | inactive |
| O=C1C(c2[nH]c3ccc(S(=O)(=O)O)cc3c2O)=Nc2ccc(S(=O)(=O)O)cc21 | inactive |
| N#Cc1ccc(CC(=NNC(=O)Nc2ccc(OC(F)(F)F)cc2)c2cccc(C(F)(F)F)c2)cc1 | inactive |
| C=CC(=O)OCCOCCOCC | inactive |
| S=C(S)NCCNC(=S)S | inactive |
| CC(=O)C=CC1=C(C)CCCC1(C)C | inactive |
| COc1nc(C)nc(N)n1 | inactive |
| CCCC(=O)c1cc(O)c(O)cc1O | inactive |
| C=C[C@@H](C)CCC=C(C)C | inactive |
| CN1Cc2c(N)cccc2C(c2ccccc2)C1 (stereo not given) | inactive |
| CC(=O)Nc1ccc(C)cc1C | inactive |
| Cc1ccc(C=O)s1 | inactive |
| CCC/C=C/C=O | inactive |
| CC(=O)c1c(C)cc(C(C)(C)C)cc1C | inactive |
| COc1ccnc(CS(=O)c2nc3cc(OC(F)F)ccc3[nH]2)c1OC (stereo not given) | inactive |
| C=CCOC(=O)CCC1CCCCC1 | inactive |
| CC(=O)Nc1ccc(CC(=O)O)cc1 | inactive |
| NCCCN1CCOCC1 | inactive |
| CCCC(=O)OCCC(C)CCC=C(C)C (stereo not given) | inactive |
| CCCCCCCCCCCCCCCC(=O)O | inactive |
| Cc1cccc(C)c1[N+](=O)[O-] | inactive |
| CC(=O)OCCC(C)CC(C)(C)C (stereo not given) | inactive |
| C=COCCOCCOCCOC=C | inactive |
| CC(=O)O[C@H](CC(=O)[O-])C[N+](C)(C)C | inactive |
| CN(C)C(=N)N=C(N)N | inactive |

Data provenance is PubChem BioAssay (EPA / NIEHS).
